Listing of entries alongside the reported melting point.

[
  {
    "COMPOUND": "O=C(Nc1cccc(C(F)(F)F)c1)c1ccccc1Nc1cccc(C(F)(F)F)c1 [C5]",
    "MEASURED": "75 to 76 °C"
  },
  {
    "COMPOUND": "O=C(Nc1ccccc1C(F)(F)F)c1cccnc1Nc1cccc(C(F)(F)F)c1 [C4]",
    "MEASURED": "139 to 140 °C"
  },
  {
    "COMPOUND": "CNC(=O)c1cc(Cl)ccc1NC(=O)c1ccccc1Nc1cccc(C(F)(F)F)c1 [B10]",
    "MEASURED": "190 to 191 °C"
  },
  {
    "COMPOUND": "NC(=O)c1ccccc1NC(=O)c1ccccc1Nc1cccc(C(F)(F)F)c1 [B1]",
    "MEASURED": "136 to 137 °C"
  },
  {
    "COMPOUND": "O=C(Nc1ccnc(Cl)c1)c1ccccc1Nc1cccc(C(F)(F)F)c1 [C10]",
    "MEASURED": "97 to 98 °C"
  }
]

Entry CNC(=O)c1cc(F)cc(Br)c1NC(=O)c1ccccc1Nc1cccc(C(F)(F)F)c1 [B4] : reported melting point = ?
189 to 190 °C

Entry O=C(Nc1ccccc1C(F)(F)F)c1ccccc1Nc1cccc(C(F)(F)F)c1 [C3] : reported melting point = ?
82 to 83 °C

---

RUN DESCRIPTION: MTT in vitro cytotoxicity assay, MARC145
Type: cell-based, African green monkey
EXPERIMENTAL SETUP: African green monkey, MARC145 cells (kidney cell line, subclone of MA-104), Table 1; MTT; mean ± S.D.
pIC50: −log10 of the molar value.
ASSAY METRIC: pIC50

Use these answered entries as a reference point.
[
  {
    "MOLECULE": "CNC(=O)c1cc(Cl)ccc1NC(=O)c1ccccc1Nc1cccc(C(F)(F)F)c1 [B10]",
    "pIC50": 4.42
  },
  {
    "MOLECULE": "NC(=O)c1c(Cl)cccc1NC(=O)c1ccccc1Nc1cccc(C(F)(F)F)c1 [B11]",
    "pIC50": "< 4.04"
  },
  {
    "MOLECULE": "Cc1cc(Cl)cc(C(N)=O)c1NC(=O)c1ccccc1Nc1cccc(C(F)(F)F)c1 [A1]",
    "pIC50": "< 4.05"
  }
]

Consider the additional molecule presented here.
Entry CNC(=O)c1cc(Cl)cc(C)c1NC(=O)c1ccccc1Nc1cccc(C(F)(F)F)c1 [A2] : reported pIC50 = ?
5.09

---

Listing of entries alongside the reported melting point.

Use these answered entries as a reference point.
[
  {
    "SAMPLE SMILES": "O=C(Nc1ccc(C(F)(F)F)cc1)c1ccccc1Nc1cccc(C(F)(F)F)c1",
    "melting point": "102 to 103 °C"
  },
  {
    "SAMPLE SMILES": "CNC(=O)c1cc(Cl)cc(Cl)c1NC(=O)c1ccccc1Nc1cccc(C(F)(F)F)c1",
    "melting point": "180 to 181 °C"
  },
  {
    "SAMPLE SMILES": "NC(=O)c1cc(F)cc(Br)c1NC(=O)c1ccccc1Nc1cccc(C(F)(F)F)c1",
    "melting point": "198 to 199 °C"
  },
  {
    "SAMPLE SMILES": "NC(=O)c1c(Cl)cccc1NC(=O)c1ccccc1Nc1cccc(C(F)(F)F)c1",
    "melting point": "194 to 195 °C"
  }
]

Entry CC(C)c1ccc(NC(=O)c2ccccc2Nc2cccc(C(F)(F)F)c2)cc1 : reported melting point = ?
74 to 75 °C

---

System: MARC145 (subclone of African green monkey kidney cell line MA-104)
RUN DESCRIPTION: MTT in vitro cytotoxicity assay, MARC145
Format: cell-based
EXPERIMENTAL SETUP: Chlorocebus sabaeus, MARC145; at 100 µM; read-out: Cell growth inhibition (%) MARC145
ASSAY METRIC: inhibition at 100 µM (%)
Kindly provide the numeric value in % only, without the unit symbol.

[
  {
    "COMPOUND": "O=C(Nc1ccc(C(F)(F)F)cc1)c1cccnc1Nc1cccc(C(F)(F)F)c1",
    "ASSAY METRIC": "inhibition at 100 µM",
    "MEASURED": 65.8
  },
  {
    "COMPOUND": "O=C(Nc1ccc(Cl)nc1)c1cccnc1Nc1cccc(C(F)(F)F)c1",
    "ASSAY METRIC": "inhibition at 100 µM",
    "MEASURED": 27.1
  },
  {
    "COMPOUND": "O=C(Nc1ccnc(Cl)c1)c1ccccc1Nc1cccc(C(F)(F)F)c1",
    "ASSAY METRIC": "inhibition at 100 µM",
    "MEASURED": 80.3
  }
]

Entry O=C(Nc1ccc(C(F)(F)F)cc1)c1ccccc1Nc1cccc(C(F)(F)F)c1 : reported inhibition at 100 µM = ?
76.1

Entry O=C(Nc1cccc(C(F)(F)F)c1)c1cccnc1Nc1cccc(C(F)(F)F)c1 : reported inhibition at 100 µM = ?
89.8

Entry O=C(Nc1cccc(C(F)(F)F)c1)c1ccccc1Nc1cccc(C(F)(F)F)c1 : reported inhibition at 100 µM = ?
92.3

Entry O=C(Nc1ccccn1)c1ccccc1Nc1cccc(C(F)(F)F)c1 : reported inhibition at 100 µM = ?
56.5

Entry CC(C)c1ccc(NC(=O)c2cccnc2Nc2cccc(C(F)(F)F)c2)cc1 : reported inhibition at 100 µM = ?
15.8

Entry CC(C)c1ccc(NC(=O)c2ccccc2Nc2cccc(C(F)(F)F)c2)cc1 : reported inhibition at 100 µM = ?
7.5

Entry O=C(Nc1ccccc1C(F)(F)F)c1ccccc1Nc1cccc(C(F)(F)F)c1 : reported inhibition at 100 µM = ?
23.5

Entry O=c1[nH]cc(F)c(=O)[nH]1 [5-FU, 5-Fluorouracil, reference compound] : reported inhibition at 100 µM = ?
60.3

Entry O=C(Nc1ccccc1C(F)(F)F)c1cccnc1Nc1cccc(C(F)(F)F)c1 : reported inhibition at 100 µM = ?
0

---

Tested on: HepG2 (human hepatocellular liver carcinoma cell line)
RUN DESCRIPTION: MTT in vitro cytotoxicity assay, HepG2
Type: cell-based
EXPERIMENTAL SETUP: HepG2, at 100 µM, read-out: Cell growth inhibition (%) HepG2
Decide by inhibition at 100 µM: equal to or exceeding 40% means rule met, less means rule not met.

Past entries and their recorded results:
[
  {
    "COMPOUND": "CC(C)c1ccc(NC(=O)c2cccnc2Nc2cccc(C(F)(F)F)c2)cc1",
    "CAT": "rule not met"
  },
  {
    "COMPOUND": "O=C(Nc1ccc(C(F)(F)F)cc1)c1cccnc1Nc1cccc(C(F)(F)F)c1",
    "CAT": "rule met"
  },
  {
    "COMPOUND": "O=C(Nc1ccccc1C(F)(F)F)c1ccccc1Nc1cccc(C(F)(F)F)c1",
    "CAT": "rule met"
  }
]

inhibition at 100 µM >= 40% for O=C(Nc1cccc(C(F)(F)F)c1)c1ccccc1Nc1cccc(C(F)(F)F)c1 ?
rule met

inhibition at 100 µM >= 40% for O=C(Nc1cccc(C(F)(F)F)c1)c1cccnc1Nc1cccc(C(F)(F)F)c1 ?
rule met

inhibition at 100 µM >= 40% for O=c1[nH]cc(F)c(=O)[nH]1 [5-FU, 5-Fluorouracil, reference compound] ?
rule met

inhibition at 100 µM >= 40% for O=C(Nc1ccccc1C(F)(F)F)c1cccnc1Nc1cccc(C(F)(F)F)c1 ?
rule not met

---

RUN DESCRIPTION: MTT in vitro cytotoxicity assay, MARC145
Type: cell-based, African green monkey
EXPERIMENTAL SETUP: African green monkey, MARC145 cells (kidney cell line, subclone of MA-104), Table 1; MTT; mean ± S.D.
pIC50: −log10 of the molar value.
ASSAY METRIC: pIC50

[
  {
    "SAMPLE SMILES": "NC(=O)c1cc(F)cc(Br)c1NC(=O)c1ccccc1Nc1cccc(C(F)(F)F)c1",
    "pIC50": 4.42
  },
  {
    "SAMPLE SMILES": "NC(=O)c1cc(Cl)ccc1NC(=O)c1ccccc1Nc1cccc(C(F)(F)F)c1",
    "pIC50": "< 4.04"
  },
  {
    "SAMPLE SMILES": "NC(=O)c1ccccc1NC(=O)c1ccccc1Nc1cccc(C(F)(F)F)c1",
    "pIC50": "< 4.00"
  },
  {
    "SAMPLE SMILES": "CNC(=O)c1c(Cl)cccc1NC(=O)c1ccccc1Nc1cccc(C(F)(F)F)c1",
    "pIC50": "< 4.05"
  },
  {
    "SAMPLE SMILES": "Cc1cccc(C(N)=O)c1NC(=O)c1ccccc1Nc1cccc(C(F)(F)F)c1",
    "pIC50": "< 4.01"
  },
  {
    "SAMPLE SMILES": "CNC(=O)c1ccccc1NC(=O)c1ccccc1Nc1cccc(C(F)(F)F)c1",
    "pIC50": "< 4.02"
  }
]

Consider the additional molecule presented here.
Entry CNC(=O)c1cc(Cl)cc(Cl)c1NC(=O)c1ccccc1Nc1cccc(C(F)(F)F)c1 : reported pIC50 = ?
< 4.08
